// provenance: PubChem BioAssay (NCI)

Field: growth. Provide a value for each of the compounds that follow.
Test system: K-562 leukemia
measurement.description: NCI-60 one-dose screen, 48 h (100 = growth as untreated, 0 = no growth, -100 = all killed)
condition.parameters: 10 µM unless noted
This is part of a sample that, as a whole, favours compounds with a hit. Of some 83,000 tested, about 20% had one in any assay. The source made the active and inactive calls. How the source made its calls: active means growth percent below 10; inactive means the rest.

Request - read-out growth | tested on K-562 leukemia | compound CCOC(=O)c1ccccc1-c1c2ccc(=[N+](C)C)cc-2oc2cc(N(C)C)ccc12
10.2% (inactive)

What value of growth on K-562 leukemia does O=C1/C(=C2\SC(=S)N(C3CC3)C2=O)SC(=S)N1C1CC1 have?
103% (inactive)

What is its growth for K-562 leukemia? Entry: CCN1CCN(C(=O)[C@]23CC[C@@H](C)[C@H](C)[C@@H]2C2=CC[C@@H]4[C@@]5(C)C/C(=C/c6cccnc6)C(=O)C(C)(C)[C@@H]5CC[C@@]4(C)[C@]2(C)CC3)CC1
6.46% (active)

Record lookup: for K-562 leukemia, what growth belongs to N#CSc1c[nH]c2cccc(/C=C/C(=O)/C=C(O)/C=C/c3cccc4[nH]cc(SC#N)c34)c12 ?
-12.9% (active)

Give recorded growth with K-562 leukemia for the following compound: CCN(CC)CCCOc1ccc2ncnc(Nc3ccc(Oc4cccc(C(F)(F)F)c4)c(Cl)c3)c2c1
-28.6% (active)

Which measured growth belongs to c1ccc2c(c1)CCCc1nnc3nc4ccccc4n3c1-2 , tested on K-562 leukemia?
31.4% (inactive)

Record C/C(Cc1ccc(Cl)cc1)=C(\c1ccc(OCCCN(C)C)cc1)c1ccc(OC(=O)Cc2ccccc2)cc1 : what is its growth with K-562 leukemia?
91.8% (inactive)

Identify the measured growth of C=CC(=O)Nc1ccc(Nc2nccc(-c3ccc(N4CCCC4)c(C#N)c3)n2)cc1 for K-562 leukemia.
16.6% (inactive)

Lab note: need growth for O=C1Nc2ccccc2C1(c1c[nH]c2ccccc12)c1c[nH]c2ccccc12 on K-562 leukemia, anyone have it?
42.9% (inactive)

Request: growth, test system K-562 leukemia, entry O=c1ccc(=O)n(-c2nc(-c3ccc([N+](=O)[O-])cc3)cs2)[nH]1
95.2% (inactive)

Give K-562 leukemia growth for COc1cccc(/C=C/C(=O)c2cc3c(N)c(C(=O)Nc4cccc5ccccc45)sc3nc2C)c1
10.4% (inactive)

Requested read-out growth, target or system K-562 leukemia, entry COc1ccc(Nc2ncccc2/C=C/C(=O)c2cc(OC)c(OC)c(OC)c2)cc1
-26.3% (active)

growth of CCC1S/C(=N\N=C(\C)c2cc3cc(Cl)ccc3o2)N(c2ccccc2)C1=O (centres undefined) on K-562 leukemia?
92.2% (inactive)

growth of Cc1c(CC(=S)N2CCOCC2)nnn1-c1cccc(C(F)(F)F)c1 on K-562 leukemia?
100% (inactive)

API: value(readout=growth, system=K-562 leukemia) for record O=C1c2ccccc2C(=O)c2c1c(C(=O)NCc1ccccc1)c1ccccn21
84.5% (inactive)

Notebook entry, K-562 leukemia assay: growth of CC1CCN(C(=O)CCCl)c2ccccc21 (centres undefined) = ?
147% (inactive)

Recall the recorded growth for CCOc1c(OC)cc2c(c1O)C(=O)N[C@@H]1[C@@H](O)[C@@H](O)[C@H](O)C[C@@H]21 with K-562 leukemia and state it.
91.2% (inactive)

// map O=C1/C(=C/c2ccccn2)NC(=S)N1c1ccccc1Cl to recorded growth (system: K-562 leukemia)
39.7% (inactive)

Could you share what growth was measured for Oc1c(CN2CCOCC2)cc(COCc2ccccc2)c2cccnc12 , tested on K-562 leukemia?
14.8% (inactive)

====

Tested on: CCRF-CEM leukemia
measurement.description: NCI-60 one-dose screen, 48 h (100 = growth as untreated, 0 = no growth, -100 = all killed)
condition.parameters: 10 µM unless noted
About 83,000 compounds went through this panel and 20% of them were active in at least one assay; those are over-represented in the sample as a whole.
Binned growth; ranges: low: < 40%; medium: ≥ 40% and < 90%; high: ≥ 90%

Exam item: assign N#Cc1cncc(-c2ccc3ncnc(Nc4cccc(Cl)c4)c3c2)c1 to the correct category.
high

For this compound, which bin applies? COc1cccc(Nc2ncnc3cc(NC(=O)CCl)ccc23)c1
low

Which growth category applies to C#Cc1cccc(Nc2nc(C)nc3cc(NC(=O)CCl)ccc23)c1 here?
low

Record O=C1Nc2ccccc2/C1=C/c1cccn1C(=O)c1ccc(Cl)s1 — which class?
low

Class? Entry: Nc1nc(NC(=O)Nc2ccc(C(=O)O)cc2)nn1-c1ccc(S(N)(=O)=O)cc1
high

Which of the defined bands does the recorded growth of CNC(=O)c1cc(Oc2cccc3nc(NC(=O)Nc4cc(C(F)(F)F)ccc4Cl)ccc23)ccn1 sit within?
medium

Exercise: read the entry CCCn1nc(C(=O)N(C)Cc2ccccc2)c2c1CCC(N1CCc3ccccc31)C2 (stereo not given) and state which class it falls under.
high

# bin lookup: classify Cc1ccc(S(=O)(=O)OCCCOS(=O)(=O)c2ccc(C)cc2)cc1 by its growth
medium

Which class does CCNC(=O)Oc1ccc(/C(=C(/C)Cc2ccc(OC)cc2)c2ccc(OCCN3CCCCC3)cc2)cc1 fall in?
low

====

System: SW-620 colon
measurement.description: NCI-60 one-dose screen, 48 h (100 = growth as untreated, 0 = no growth, -100 = all killed)
condition.parameters: 10 µM unless noted
This is part of a sample that, as a whole, favours compounds with a hit. Of some 83,000 tested, about 20% had one in any assay.
assay.metric: growth (%)
Your answer is read as %, so omit the unit and give the number.

What value of growth has been recorded for this entry: COc1ccc(N2CCN(C(=O)c3sc4nc(C)c(Br)c(C)c4c3N)CC2)cc1
104

Can you share its growth? I mean this compound: COc1cccc(CCNc2ncnc3c2ncn3Cc2nnc3c4ccccc4c(Cl)nn23)c1
57.4

I have this compound here, COc1cccc(/C=C/C(=O)c2cccc(Nc3nc(Nc4ccccc4)nc(Nc4ccccc4)n3)c2)c1 , and I need its recorded growth.
40.5

What value of measured growth is listed for CC1(C)OB(O)c2cc(-c3nc4ccc5[nH]ncc5c4c4c3CCCC4)ccc21 ?
59.4

// query growth value for entry C=CC(=O)Nc1ccc(Oc2nccc(Nc3nnc(-c4ccc(C)cc4)s3)n2)cc1
49.5

Can you share its growth? I mean this compound: Cc1ccc(C=C2C(=O)NC(=O)NC2=O)cc1
109

Given the entry O=C(/C=C/c1cccc(Cl)c1Cl)Nc1ncc(Cc2ccccc2Cl)s1 , report its measured growth.
27

# query: growth of entry COc1ccc(CCN(CC(=O)N(CC(N)=O)C2CCC[C@@H]2OCc2ccccc2)C(=O)CN(C(=O)CN(CCc2ccc(Cl)cc2)C(=O)CN(C(=O)CN(C)Cc2ccccc2F)[C@H](C)C2CCCCC2)[C@H](C)C2CCCCC2)cc1OC (some centres undefined)
53.2

Field request: growth | item: COC(=O)N1CC(Oc2ccccn2)C2CC1c1ccccc1O2 (centres undefined)
102

====

System: LOX IMVI melanoma
measurement.description: NCI-60 one-dose screen, 48 h (100 = growth as untreated, 0 = no growth, -100 = all killed)
condition.parameters: 10 µM unless noted
This is part of a sample that, as a whole, favours compounds with a hit. Of some 83,000 tested, about 20% had one in any assay.
assay.metric: growth (%)
Provide the reading as a plain figure in %.

Endpoint output: growth of Cc1ccc(-c2nc(SCc3nc4cc(Cl)c(Cl)cc4[nH]3)[nH]c(=O)c2C#N)cc1 . Value?
102

Look at this molecule and give its reported growth. COC(=O)CC[C@@H]1O[C@@H](c2ccc(F)cc2)[C@@H](O)[C@H]1O
99.8

Would you kindly share the measured growth for CS(=O)(=O)Nc1cc(-c2ccc3ncc(C#N)c(Nc4ccc(F)c(Cl)c4)c3c2)cnc1Cl ?
-53.7

Look up growth for this molecule: CC1(C)[C@@H](O[C@@H]2OC[C@@H](O[C@@H]3O[C@H](CO)[C@@H](O)[C@H](O)[C@H]3O[C@@H]3OC[C@@H](O)[C@H](O)[C@H]3O)[C@H](O)[C@H]2O[C@@H]2O[C@H](CO)[C@@H](O)[C@H](O)[C@H]2O)CC[C@]2(C)[C@H]3CC[C@]45OC[C@@]6(CC[C@](C)(C=O)C[C@H]64)[C@H](O)C[C@@]5(C)[C@]3(C)CC[C@@H]12
-73.2

I am curious: what growth value has been reported for CCCCNc1cc(-c2cn[nH]c2-c2cc(C)cc(OC)c2)nc(-c2cccnc2)n1 ?
91.2

I would be grateful if you could share the reported growth for CCOC(=O)/C=C1\S/C(=N\Nc2cc(=O)[nH]c3ccccc23)N(c2ccccc2)C1=O .
97.2

So what does the record say about growth for O=C(N/N=C\c1cccc([N+](=O)[O-])c1)N/N=C/c1cccc([N+](=O)[O-])c1 ?
103

What growth value was documented for this molecule, CC1(C)CC[C@]2(C(=O)N[C@H](CO)Cc3ccccc3)CC[C@]3(C)C(=CC[C@@H]4[C@@]5(C)CCCNC(C)(C)[C@@H]5CC[C@]43C)[C@@H]2C1 ?
69.6

Which value of growth has been reported for C=CCOC(=O)C1=C(C)N(CC)C(=O)NC1c1c(Cl)n(C)c2ccccc12 (centres undefined) in the records?
88.6

// growth lookup, key: C=C1C(=O)O[C@H]2[C@H]1CC/C(COC(=O)/C=C/C(=O)OC/C1=C/CC[C@@]3(C)O[C@H]3[C@H]3OC(=O)C(=C)[C@@H]3CC1)=C\CC[C@@]1(C)O[C@@H]21
3.81

What value of growth has been reported for the following molecule? C/C=C(\C)C(=O)N[C@H]1C(O)C[C@]2(C)C3CC[C@@]4(C)C(CC[C@@H]4C(C)N(C)C)C3CCC2C1O (some centres undefined)
-26.3

Given the entry O=C(O)/C=C/C(=O)Nc1cccc(Cn2nnc3cc(Cl)c(Cl)cc32)c1 , report its measured growth.
97.3

Fill in the blank: the reported growth of C[C@@H]1O[C@@H](O[C@@H]2C[C@H](c3ccc4c(c3O)C(=O)C3=C(C4=O)[C@@]4(O)C(=O)C[C@](C)(O)C[C@@]4(O)C=C3)O[C@H](C)[C@H]2O)CC[C@@H]1O[C@H]1C[C@@H](O)[C@H](O)[C@@H](C)O1 is ____.
94.6

Which growth reading was recorded for the molecule NC1=Nc2cc(OCCCCN3Cc4ccccc4C3)c(OCC3CC3)cc2C12CCCC2 ?
-80.7
